Tested on: MDA-MB-231
Experiment: Cytotoxicity against human MDA-MB-231 cells after 48 hrs by MTT assay
Details: MDA-MB-231, 48 h
Note to self: IC50 under 5 µM means label 1, ties and anything higher get label 0.

- Item smiles: "COc1cccc2c1C(=O)c1c(O)c3c(c(O)c1C2=O)C[C@@](O)(C(=O)CO)C[C@@H]3O[C@H]1C[C@H](N)[C@H](O)[C@H](C)O1"
  Label: "label 1"
- Item smiles: "COc1cc(OC)c2c(=O)c(OCC(=O)N/N=C/c3ccc[nH]3)c(-c3cc(OC)c(OC)c(OC)c3)oc2c1"
  Label: "label 1"
- Item smiles: "COc1cc(OC)c2c(=O)c(OCCCCN3CCCC3)c(-c3cc(OC)c(OC)c(OC)c3)oc2c1"
  Label: "label 0"
- Item smiles: "COc1cc(OC)c2c(=O)c(OCC(=O)N/N=C/c3ccco3)c(-c3cc(OC)c(OC)c(OC)c3)oc2c1"
  Label: "label 1"
- Item smiles: "COc1cc(OC)c2c(=O)c(OCC(=O)N/N=C/c3ccc(C)cc3)c(-c3cc(OC)c(OC)c(OC)c3)oc2c1"
  Label: "label 1"
- Item smiles: "COc1cc(OC)c2c(=O)c(OCC(=O)N/N=C/c3ccccn3)c(-c3cc(OC)c(OC)c(OC)c3)oc2c1"
  Label: "label 0"
- Item smiles: "COc1cc(OC)c2c(=O)c(OCCCN3CCN(C)CC3)c(-c3cc(OC)c(OC)c(OC)c3)oc2c1"
  Label: "label 0"

====

Target: Telomerase reverse transcriptase (Homo sapiens)
Sequence (O14746 whole entry): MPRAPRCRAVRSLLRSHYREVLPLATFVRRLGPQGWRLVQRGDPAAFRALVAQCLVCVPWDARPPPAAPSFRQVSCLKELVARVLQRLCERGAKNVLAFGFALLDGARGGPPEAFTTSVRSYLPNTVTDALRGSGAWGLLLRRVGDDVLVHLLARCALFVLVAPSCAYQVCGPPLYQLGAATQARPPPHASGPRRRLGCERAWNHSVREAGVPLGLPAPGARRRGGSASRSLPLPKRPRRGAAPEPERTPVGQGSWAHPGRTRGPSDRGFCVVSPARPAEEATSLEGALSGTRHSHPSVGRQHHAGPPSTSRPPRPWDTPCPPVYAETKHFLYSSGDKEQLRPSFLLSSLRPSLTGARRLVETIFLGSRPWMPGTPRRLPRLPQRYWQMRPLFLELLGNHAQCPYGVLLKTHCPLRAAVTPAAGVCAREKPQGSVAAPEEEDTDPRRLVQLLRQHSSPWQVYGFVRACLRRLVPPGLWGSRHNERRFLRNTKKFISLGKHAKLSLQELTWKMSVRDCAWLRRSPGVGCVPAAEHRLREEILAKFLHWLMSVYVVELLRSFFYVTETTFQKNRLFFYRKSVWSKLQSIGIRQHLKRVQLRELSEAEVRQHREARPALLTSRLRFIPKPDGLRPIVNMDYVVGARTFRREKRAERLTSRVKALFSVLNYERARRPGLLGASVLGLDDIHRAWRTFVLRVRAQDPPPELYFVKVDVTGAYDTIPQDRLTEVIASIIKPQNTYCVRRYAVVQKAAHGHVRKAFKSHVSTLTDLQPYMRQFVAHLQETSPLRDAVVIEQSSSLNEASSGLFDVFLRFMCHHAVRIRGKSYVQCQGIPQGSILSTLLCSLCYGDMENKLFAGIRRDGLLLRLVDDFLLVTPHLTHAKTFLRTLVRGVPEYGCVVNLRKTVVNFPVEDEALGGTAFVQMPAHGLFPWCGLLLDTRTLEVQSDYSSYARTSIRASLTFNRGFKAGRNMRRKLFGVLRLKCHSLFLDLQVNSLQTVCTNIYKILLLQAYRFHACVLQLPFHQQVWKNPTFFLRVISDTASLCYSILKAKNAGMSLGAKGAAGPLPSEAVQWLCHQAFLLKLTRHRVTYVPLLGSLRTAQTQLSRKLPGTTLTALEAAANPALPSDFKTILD
Assay: Inhibition of telomerase in human MDA-MB-231 cells after 24 hrs by TRAP-PCR-ELISA
pIC50: −log10 of the molar value.
Binary classification by pIC50, with 5 as an inclusive lower bound for Condition met; all other cases are Condition not met.

- Compound: "CC[n+]1c(-c2ccccc2)c2cc(N)ccc2c2ccc(N)cc21 [HOMIDIUM BROMIDE]"
  Target or system: "Telomerase reverse transcriptase (Homo sapiens)"
  Label: "Condition met"
- Compound: "COc1cc(OC)c2c(=O)c(OCC(=O)N/N=C/c3ccco3)c(-c3cc(OC)c(OC)c(OC)c3)oc2c1"
  Target or system: "Telomerase reverse transcriptase (Homo sapiens)"
  Label: "Condition met"
- Compound: "COc1cc(OC)c2c(=O)c(OCC(=O)N/N=C/c3ccccc3F)c(-c3cc(OC)c(OC)c(OC)c3)oc2c1"
  Target or system: "Telomerase reverse transcriptase (Homo sapiens)"
  Label: "Condition met"
- Compound: "C/C(=C\\C(=O)Nc1ccccc1C(=O)O)c1ccc2ccccc2c1"
  Target or system: "Telomerase reverse transcriptase (Homo sapiens)"
  Label: "Condition met"
- Compound: "COc1cc(OC)c2c(=O)c(OCCCN3CCCCC3)c(-c3cc(OC)c(OC)c(OC)c3)oc2c1"
  Target or system: "Telomerase reverse transcriptase (Homo sapiens)"
  Label: "Condition met"
- Compound: "COc1cc(OC)c2c(=O)c(OCCCCN3CCCCC3)c(-c3cc(OC)c(OC)c(OC)c3)oc2c1"
  Target or system: "Telomerase reverse transcriptase (Homo sapiens)"
  Label: "Condition met"
- Compound: "CCN(CC)CCCCOc1c(-c2cc(OC)c(OC)c(OC)c2)oc2cc(OC)cc(OC)c2c1=O"
  Target or system: "Telomerase reverse transcriptase (Homo sapiens)"
  Label: "Condition not met"
- Compound: "COc1cc(OC)c2c(=O)c(OCCCN3CCCC3)c(-c3cc(OC)c(OC)c(OC)c3)oc2c1"
  Target or system: "Telomerase reverse transcriptase (Homo sapiens)"
  Label: "Condition not met"
- Compound: "CCN(CC)CCCOc1c(-c2cc(OC)c(OC)c(OC)c2)oc2cc(OC)cc(OC)c2c1=O"
  Target or system: "Telomerase reverse transcriptase (Homo sapiens)"
  Label: "Condition not met"
- Compound: "COc1cc(OC)c2c(=O)c(OCCCN3CCN(C)CC3)c(-c3cc(OC)c(OC)c(OC)c3)oc2c1"
  Target or system: "Telomerase reverse transcriptase (Homo sapiens)"
  Label: "Condition not met"

Provenance of the data: ChEMBL document CHEMBL3421547
